Molecular target: Alpha-1A adrenergic receptor (Homo sapiens, UniProt P35348)
Sequence (P35348 whole entry): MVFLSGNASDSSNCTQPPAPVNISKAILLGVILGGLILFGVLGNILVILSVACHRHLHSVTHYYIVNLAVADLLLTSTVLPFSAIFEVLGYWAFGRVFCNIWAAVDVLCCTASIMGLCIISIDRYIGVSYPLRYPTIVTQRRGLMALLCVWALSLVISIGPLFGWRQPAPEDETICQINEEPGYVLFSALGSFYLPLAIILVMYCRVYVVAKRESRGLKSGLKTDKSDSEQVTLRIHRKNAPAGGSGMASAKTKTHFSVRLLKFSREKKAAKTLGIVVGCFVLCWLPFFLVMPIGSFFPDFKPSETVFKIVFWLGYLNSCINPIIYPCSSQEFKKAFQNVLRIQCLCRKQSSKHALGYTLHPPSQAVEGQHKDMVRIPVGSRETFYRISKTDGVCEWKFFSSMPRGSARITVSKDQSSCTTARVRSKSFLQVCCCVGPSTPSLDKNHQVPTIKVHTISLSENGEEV
Value Type: pKi
Units for pKi: none; it is -log10 of a concentration expressed in mol/L.

Fetch value of pKi on Alpha-1A adrenergic receptor (Homo sapiens, UniProt P35348) for COc1ccccc1N1CCN(CCCCn2ncc(=O)n(C)c2=O)CC1 . 8.17

----------
Target: Alpha-2B adrenergic receptor (Homo sapiens)
Sequence (P18089 whole entry): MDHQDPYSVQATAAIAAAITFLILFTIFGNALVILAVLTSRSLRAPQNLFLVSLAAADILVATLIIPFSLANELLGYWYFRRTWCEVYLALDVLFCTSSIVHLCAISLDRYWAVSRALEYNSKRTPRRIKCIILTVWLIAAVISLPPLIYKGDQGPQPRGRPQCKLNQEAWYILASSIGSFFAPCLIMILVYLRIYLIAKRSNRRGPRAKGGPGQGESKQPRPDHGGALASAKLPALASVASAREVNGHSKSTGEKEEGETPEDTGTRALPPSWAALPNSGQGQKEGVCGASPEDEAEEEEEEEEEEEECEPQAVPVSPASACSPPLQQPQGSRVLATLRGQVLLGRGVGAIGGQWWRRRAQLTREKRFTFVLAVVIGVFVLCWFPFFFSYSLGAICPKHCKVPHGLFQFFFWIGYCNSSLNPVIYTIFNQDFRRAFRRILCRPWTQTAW
Value Type: Ki (nM)
Provide the reading as a plain figure in nM.

Give Ki for Cn1c(=O)cnn(CCCCN2CCN(c3ccccc3OCCF)CC2)c1=O tested on Alpha-2B adrenergic receptor (Homo sapiens). 56.2

Tell me Ki of COc1ccccc1N1CCN(CCCCn2ncc(=O)n(C)c2=O)CC1 when tested on Alpha-2B adrenergic receptor (Homo sapiens). 238

----------
Target: Sigma non-opioid intracellular receptor 1 (Homo sapiens, UniProt Q99720)
Sequence (Q99720 whole entry): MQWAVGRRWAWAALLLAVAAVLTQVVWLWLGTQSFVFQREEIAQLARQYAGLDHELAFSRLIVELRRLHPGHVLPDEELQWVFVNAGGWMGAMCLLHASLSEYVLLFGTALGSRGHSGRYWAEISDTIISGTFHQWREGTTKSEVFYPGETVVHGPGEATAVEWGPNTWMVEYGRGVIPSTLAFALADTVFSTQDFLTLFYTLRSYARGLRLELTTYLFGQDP
Experiment: Binding affinity to sigma 1 receptor (unknown origin)
Value Type: pKi
Quick note: pKi means taking -log10 of the concentration in moles per liter.

Look up Sigma non-opioid intracellular receptor 1 (Homo sapiens, UniProt Q99720) data: pKi of COc1ccccc1N1CCN(CCCCn2ncc(=O)n(C)c2=O)CC1 , then report it. 7.23

----------
Biological target: 5-hydroxytryptamine receptor 1D (Homo sapiens)
Sequence (P28221 whole entry): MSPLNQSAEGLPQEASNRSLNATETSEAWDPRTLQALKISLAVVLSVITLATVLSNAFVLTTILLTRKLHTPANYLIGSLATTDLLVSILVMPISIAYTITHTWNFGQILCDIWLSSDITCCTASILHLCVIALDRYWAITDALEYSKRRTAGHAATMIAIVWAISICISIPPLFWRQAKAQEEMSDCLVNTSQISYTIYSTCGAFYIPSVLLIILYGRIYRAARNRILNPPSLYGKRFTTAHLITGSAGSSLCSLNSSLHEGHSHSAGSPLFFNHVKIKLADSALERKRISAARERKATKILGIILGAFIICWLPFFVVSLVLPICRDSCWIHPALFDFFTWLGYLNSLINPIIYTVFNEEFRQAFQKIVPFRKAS
Value Type: Ki (nM)
Give the number; nM is assumed, so skip it.

Give Ki for the following compound: COc1ccccc1N1CCN(CCCCn2ncc(=O)n(C)c2=O)CC1 88.3

----------
Molecular target: D(2) dopamine receptor (Homo sapiens, UniProt P14416)
Sequence (P14416 whole entry): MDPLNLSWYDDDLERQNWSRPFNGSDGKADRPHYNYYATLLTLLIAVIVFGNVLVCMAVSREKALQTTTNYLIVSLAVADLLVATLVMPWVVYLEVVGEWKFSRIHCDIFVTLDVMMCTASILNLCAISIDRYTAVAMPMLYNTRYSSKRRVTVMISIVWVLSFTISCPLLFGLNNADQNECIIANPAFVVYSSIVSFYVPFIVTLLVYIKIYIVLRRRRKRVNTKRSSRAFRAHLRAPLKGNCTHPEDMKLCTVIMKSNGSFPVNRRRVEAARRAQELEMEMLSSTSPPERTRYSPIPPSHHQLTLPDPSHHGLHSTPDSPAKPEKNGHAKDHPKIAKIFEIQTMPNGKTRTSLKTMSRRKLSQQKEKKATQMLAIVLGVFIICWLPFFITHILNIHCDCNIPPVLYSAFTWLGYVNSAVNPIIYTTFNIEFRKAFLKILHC
Value Type: Ki

Answer with reported Ki of COc1ccccc1N1CCN(CCCCn2ncc(=O)n(C)c2=O)CC1 > 10 µM

----------
Experiment: Metabolic stability of the compound in baboon plasma assessed as unmetabolized parent fraction after 2 mins by HPLC analysis
Format: ADME, cell-free
Conditions: papio anubis, read-out: Stability
Value Type: remaining at 2 min (%)
Form entry: value (%) — number only.

Query remaining at 2 min for Cn1c(=O)cnn(CCCCN2CCN(c3ccccc3OCC[18F])CC2)c1=O 98

----------
Assay: Binding affinity to sigma 2 receptor (unknown origin)
Parameters: species or system Homo sapiens
Value Type: Ki (nM)
Write the value in nM as a bare number.

Note down Ki recorded for Cn1c(=O)cnn(CCCCN2CCN(c3ccccc3OCCF)CC2)c1=O 1730

Return reported Ki. Input compound: COc1ccccc1N1CCN(CCCCn2ncc(=O)n(C)c2=O)CC1 123

----------
Value Type: Ki (µM)
Dear colleague, please return just the value in µM, with no unit written.

Using UniProtKB P28223 as the test system, report measured Ki of COc1ccccc1N1CCN(CCCCn2ncc(=O)n(C)c2=O)CC1 . 4.98

----------
Assay: Metabolic stability of the compound in baboon plasma assessed as unmetabolized parent fraction after 120 mins by HPLC analysis
Format: ADME, cell-free
Settings: papio anubis, read-out: Stability
Value Type: remaining at 2 h (%)
Express your answer in %, writing the number without its unit.

Answer with the recorded remaining at 2 h for the compound listed here: Cn1c(=O)cnn(CCCCN2CCN(c3ccccc3OCC[18F])CC2)c1=O 23.5

----------
Molecular target: Histamine H1 receptor (Homo sapiens)
Sequence (P35367 whole entry): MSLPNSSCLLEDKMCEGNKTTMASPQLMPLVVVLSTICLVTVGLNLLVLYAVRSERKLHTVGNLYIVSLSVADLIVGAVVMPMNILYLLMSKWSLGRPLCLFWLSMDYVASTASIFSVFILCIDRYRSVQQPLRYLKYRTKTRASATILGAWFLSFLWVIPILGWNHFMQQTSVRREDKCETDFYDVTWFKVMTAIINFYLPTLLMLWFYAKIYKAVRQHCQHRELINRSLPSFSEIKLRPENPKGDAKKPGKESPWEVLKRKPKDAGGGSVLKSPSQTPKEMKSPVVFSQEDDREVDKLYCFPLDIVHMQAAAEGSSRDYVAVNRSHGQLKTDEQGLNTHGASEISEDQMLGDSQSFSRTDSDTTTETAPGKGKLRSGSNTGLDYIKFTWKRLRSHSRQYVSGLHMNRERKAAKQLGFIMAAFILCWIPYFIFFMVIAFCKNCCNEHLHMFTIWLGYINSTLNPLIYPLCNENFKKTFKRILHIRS
Value Type: Ki (µM)
Give the value, in units of µM, as a plain number.

Quote Histamine H1 receptor (Homo sapiens) Ki for entry COc1ccccc1N1CCN(CCCCn2ncc(=O)n(C)c2=O)CC1 . 1.03

----------
Experiment: Metabolic stability of the compound in baboon plasma assessed as unmetabolized parent fraction after 30 mins by HPLC analysis
Format: ADME, cell-free
Details: papio anubis, read-out: Stability
Value Type: remaining at 0.5 h (%)
Lab book: enter the figure in %, no units written.

Complete the entry with remaining at 0.5 h for Cn1c(=O)cnn(CCCCN2CCN(c3ccccc3OCC[18F])CC2)c1=O 51

----------
Biological target: Alpha-2C adrenergic receptor (Homo sapiens)
Sequence (P18825 whole entry): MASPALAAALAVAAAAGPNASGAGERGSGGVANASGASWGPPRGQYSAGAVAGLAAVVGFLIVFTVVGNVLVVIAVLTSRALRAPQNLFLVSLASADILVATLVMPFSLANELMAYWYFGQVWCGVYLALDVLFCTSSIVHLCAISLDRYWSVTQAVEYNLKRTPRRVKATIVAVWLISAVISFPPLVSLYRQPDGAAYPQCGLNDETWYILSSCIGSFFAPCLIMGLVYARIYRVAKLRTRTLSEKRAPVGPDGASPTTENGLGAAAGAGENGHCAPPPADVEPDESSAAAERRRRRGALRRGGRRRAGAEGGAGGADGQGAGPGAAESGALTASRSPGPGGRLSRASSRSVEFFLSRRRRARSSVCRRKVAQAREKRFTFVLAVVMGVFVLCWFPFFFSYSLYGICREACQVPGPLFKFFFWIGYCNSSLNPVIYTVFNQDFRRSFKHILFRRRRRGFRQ
Assay: Binding affinity to adrenergic alpha2C receptor (unknown origin)
Value Type: Ki
Answer format: value, then unit.

Retrieve Ki on Alpha-2C adrenergic receptor (Homo sapiens); query COc1ccccc1N1CCN(CCCCn2ncc(=O)n(C)c2=O)CC1 15 nM

----------
Test: Metabolic stability of the compound in baboon plasma assessed as unmetabolized parent fraction after 12 mins by HPLC analysis
Type: ADME, cell-free
Conditions: papio anubis, read-out: Stability
Value Type: remaining at 0.2 h (%)
Use % as the unit, but write only the number.

# return recorded remaining at 0.2 h for input Cn1c(=O)cnn(CCCCN2CCN(c3ccccc3OCC[18F])CC2)c1=O 74

----------
Value Type: Ki

Please report Ki with 5-hydroxytryptamine receptor 5A (Homo sapiens) for item COc1ccccc1N1CCN(CCCCn2ncc(=O)n(C)c2=O)CC1 . > 10 µM

----------
Value Type: pKi
Here pKi is given on a logarithmic scale as minus log10 of the concentration in mol/L.

Answer with pKi of COc1ccccc1N1CCN(CCCCn2ncc(=O)n(C)c2=O)CC1 measured for Alpha-2A adrenergic receptor (Homo sapiens, UniProt P08913). 7.02

Jot down pKi (Alpha-2A adrenergic receptor (Homo sapiens, UniProt P08913)) of Cn1c(=O)cnn(CCCCN2CCN(c3ccccc3OCCF)CC2)c1=O . 5.56

----------
Experiment: Metabolic stability of the compound in baboon plasma assessed as unmetabolized parent fraction after 180 mins by HPLC analysis
Type: ADME, cell-free
Conditions: papio anubis, read-out: Stability
Value Type: remaining at 3 h (%)
Write the answer as a number in %, unit excluded.

Note remaining at 3 h for the molecule shown: Cn1c(=O)cnn(CCCCN2CCN(c3ccccc3OCC[18F])CC2)c1=O 18

----------
Value Type: pKi
Please express pKi as -log10 of the molar concentration.

State measured pKi of the compound COc1ccccc1N1CCN(CCCCn2ncc(=O)n(C)c2=O)CC1 with 5-hydroxytryptamine receptor 7 (Homo sapiens, UniProt P34969). 7.89

----------
Here's a batch of molecules along with measured pKi for D(4) dopamine receptor (Homo sapiens).
Note on units: pKi is unitless, being -log10 of a concentration expressed in mol/L.

Return pKi (reported value) for this molecule: COc1ccccc1N1CCN(CCCCn2ncc(=O)n(C)c2=O)CC1 7.68

Assign pKi to the following record: Cn1c(=O)cnn(CCCCN2CCN(c3ccccc3OCCF)CC2)c1=O 7.15

----------
Value Type: Ki (nM)
// note: answer is a bare numeric in nM

Report Ki on 5-hydroxytryptamine receptor 1B (Homo sapiens, UniProt P28222) for this entry: COc1ccccc1N1CCN(CCCCn2ncc(=O)n(C)c2=O)CC1 643

----------
Assay: Metabolic stability of the compound in baboon plasma assessed as unmetabolized parent fraction after 90 mins by HPLC analysis
Type: ADME, cell-free
Conditions: papio anubis, read-out: Stability
Value Type: remaining at 1.5 h (%)
Provide only the numeric value, understood in %.

Read off the recorded remaining at 1.5 h for Cn1c(=O)cnn(CCCCN2CCN(c3ccccc3OCC[18F])CC2)c1=O 32.5

----------
Experiment: Binding affinity to benzodiazepine receptor in rat brain
Type: tissue-based
Value Type: pKi
pKi is a log-scale quantity: -log10 of the concentration expressed in molar.

# return recorded pKi for entry Cn1c(=O)cnn(CCCCN2CCN(c3ccccc3OCCF)CC2)c1=O 5.20

----------
Molecular target: 5-hydroxytryptamine receptor 2B (Homo sapiens, UniProt P41595)
Sequence (P41595 whole entry): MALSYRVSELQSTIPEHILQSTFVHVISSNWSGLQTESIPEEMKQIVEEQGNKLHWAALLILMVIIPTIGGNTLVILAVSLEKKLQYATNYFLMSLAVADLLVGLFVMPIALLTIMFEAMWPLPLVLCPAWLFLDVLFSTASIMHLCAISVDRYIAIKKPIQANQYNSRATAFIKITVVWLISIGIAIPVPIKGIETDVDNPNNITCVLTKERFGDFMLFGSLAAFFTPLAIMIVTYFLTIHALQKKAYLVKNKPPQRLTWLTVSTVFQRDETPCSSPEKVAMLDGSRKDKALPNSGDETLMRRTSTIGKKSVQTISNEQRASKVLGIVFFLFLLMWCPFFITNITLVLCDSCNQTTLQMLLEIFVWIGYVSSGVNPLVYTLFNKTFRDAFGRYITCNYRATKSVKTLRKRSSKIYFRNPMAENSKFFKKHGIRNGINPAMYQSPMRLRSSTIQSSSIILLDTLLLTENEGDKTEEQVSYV
Value Type: pKi
# log scale: pKi equals minus log10 of the concentration in mol/L

Find the measured pKi of COc1ccccc1N1CCN(CCCCn2ncc(=O)n(C)c2=O)CC1 with 5-hydroxytryptamine receptor 2B (Homo sapiens, UniProt P41595) as test system. 7.13

----------
Answer each item with its documented Ki.

Under D(1A) dopamine receptor (Homo sapiens): report Ki of COc1ccccc1N1CCN(CCCCn2ncc(=O)n(C)c2=O)CC1 . > 10 µM

Specify the recorded Ki for Cn1c(=O)cnn(CCCCN2CCN(c3ccccc3OCCF)CC2)c1=O , system: D(1A) dopamine receptor (Homo sapiens). > 10 µM

----------
Assay: Metabolic stability of the compound in baboon plasma assessed as unmetabolized parent fraction after 60 mins by HPLC analysis
Assay type: ADME, cell-free
Conditions: papio anubis, read-out: Stability
Value Type: remaining at 1 h (%)
Field: numeric (%). Do not append units.

Supply reported remaining at 1 h belonging to this compound: Cn1c(=O)cnn(CCCCN2CCN(c3ccccc3OCC[18F])CC2)c1=O 37
